# target_or_test_system: T1, cynomolgus monkey recombinant ADAMTS5 (cynomolgus monkey, UniProt Q9UNA0 262-622 (human entry), limits assumed)
# T1 chain: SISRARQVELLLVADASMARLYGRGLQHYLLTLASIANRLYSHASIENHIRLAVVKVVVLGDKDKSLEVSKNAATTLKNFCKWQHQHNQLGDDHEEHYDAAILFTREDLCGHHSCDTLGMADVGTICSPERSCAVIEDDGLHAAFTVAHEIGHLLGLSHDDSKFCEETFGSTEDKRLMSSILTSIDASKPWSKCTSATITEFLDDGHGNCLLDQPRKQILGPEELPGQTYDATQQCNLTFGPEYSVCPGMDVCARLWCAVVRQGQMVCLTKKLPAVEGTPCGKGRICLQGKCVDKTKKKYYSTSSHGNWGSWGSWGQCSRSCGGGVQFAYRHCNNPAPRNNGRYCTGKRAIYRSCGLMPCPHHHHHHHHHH
# test_description: cell-based or functional assay
value_type: AlphaLISA potency IC50, Cyno (nM)
Kindly provide the numeric value in nM only, without the unit symbol.

Exercise: Could you share which AlphaLISA potency IC50, Cyno value was measured for Nanobody 11B06 (VHH, tagged as tested (anti-Flag detection, IMAC)) VHH: EVQLVESGGGLVQAGGSLRLSCAASGLTFRRNAMGWFRQAPGKERELLAGINWSGGTTYYVDSVKGRFTISRDNAKNTVDLQMISPKPEDTAVYYCAADGDIGTLVNDENPRYWGQGTLVTVSS ?
Key: 0.12

Exercise: Requested field: AlphaLISA potency IC50, Cyno. Item: Nanobody 3D01 (VHH, tagged as tested (anti-Flag detection, IMAC); also called 03D01) VHH: EVQLVESGGGLVQAGGSLRLSCAPSGFTFSPYYMGWFRQAPGKERDFVAAISRSRGTTYYLDSTEGRFTISRDNANDTVYLQMNSLNPEDTAVYYCAAGRSPGDPSRTYLYDYWGQGTLVTVSS
Key: 0.22

Exercise: Please look up its AlphaLISA potency IC50, Cyno: Nanobody 3B02 (VHH, tagged as tested (anti-Flag detection, IMAC); also called 03B02; 3B2) VHH: EVQLVESGGGFVQAGGSLRLSCVASRRTISSGTMGWFRQAPGKEREFVAAIRWSSGMPYYLDSVMDRFTISRDNAKNTVSLQMNSLQPEDTAVYYCAADRSAFRDPSFDVNYEYWGRGTLVTVSS
Key: 0.19
